# Tested on: HeLa
# ASSAY_SUMMARY: Proliferation assay (crystal violet), HeLa
# Assay type: cell-based
# CONDITION_DETAILS: Homo sapiens, HeLa, 96 h, HeLa cells; 4 days incubation; crystal violet staining; read-out: IC50 inhibition of proliferation, HeLa
REPORTED_ENDPOINT: IC50 (nM)

SMILES_RECORD	MEASURED_VALUE
Cc1nsc(Nc2cnc(C(F)(F)F)cn2)c1C(=O)Nc1ccc(OCCCN(C)CC(F)F)nc1	330

(P) Cc1nsc(Nc2cc(C#N)ccn2)c1C(=O)Nc1cccc(C(=O)N2CCCC2)c1
(Q) Cc1nsc(Nc2cnc(C(F)(F)F)cn2)c1C(=O)Nc1ccc(OCCNC(=O)C(F)(F)F)nc1
(R) Cc1nsc(Nc2cnc(C(F)(F)F)cn2)c1C(=O)Nc1ccc(F)c(O[C@H]2CCN(CCC(F)(F)F)C2)c1
(S) Cc1nsc(Nc2cc(C#N)ccn2)c1C(=O)Nc1ccc(OC2CCN(C(=O)OC(C)(C)C)CC2)nc1
(T) Cc1nsc(Nc2cnc(C(F)(F)F)cn2)c1C(=O)Nc1ccc(O[C@@H]2CN(CCC(F)(F)F)C[C@@H]2F)nc1
Please order the records by their reported IC50, lowest number first. Ranked list of labels, please, in the requested order. T, R, Q, S, P

Value source: patent US20170334899A1
